Assay Name: Selectivity index, ratio of IC50 for human recombinant CDK5/p25 to porcine brain GSK3alpha/beta
Readout: Ratio IC50
Answers are plain numbers.

COc1cc(NC(=O)Nc2cccc3c2[C@@H]2C[C@H](OC)CCN2C3=O)nc2ccccc12 (relative stereo); 47.5

Please find the next compound below.
[in] Reported Ratio IC50, compound O=C(Nc1ccccn1)Nc1cccc2c1C1CC3(CCN1C2=O)SCCS3 (stereo not given) : ____
[out] 7.2

----------
System: PC-3
Assay Name: cells
Condition Description: Homo sapiens, PC-3, 48 h
Readout: pIC50
Give bare numbers, as −log10 of the molar value.

Worked cases, answers included:
Cc1cnc(NC(=O)Nc2cccc3c2C2CC4(CCN2C3=O)SCCS4)cn1 (stereo not drawn); 6.40
CO[C@@H]1CCN2C(=O)c3cccc(NC(=O)Nc4cc(C)ccn4)c3[C@@H]2C1 (relative stereo); 6.40

// next item, pIC50 requested
[in] What value of pIC50 on PC-3 does O=C(Nc1cnccn1)Nc1cccc2c1C1CC3(CCN1C2=O)SCCS3 (stereo not drawn) have?
[out] 6.22
